The values you see were collected from patent US9802941B2.

Measured IC50 of individual entries
Biological target: KDM4C (JMJD2C) (Homo sapiens, UniProt Q9H3R0)
Construct: KDM4C; BRIC, Denmark; 1-349; E. coli; host or cells: E. coli
Sequence (Q9H3R0 1-349): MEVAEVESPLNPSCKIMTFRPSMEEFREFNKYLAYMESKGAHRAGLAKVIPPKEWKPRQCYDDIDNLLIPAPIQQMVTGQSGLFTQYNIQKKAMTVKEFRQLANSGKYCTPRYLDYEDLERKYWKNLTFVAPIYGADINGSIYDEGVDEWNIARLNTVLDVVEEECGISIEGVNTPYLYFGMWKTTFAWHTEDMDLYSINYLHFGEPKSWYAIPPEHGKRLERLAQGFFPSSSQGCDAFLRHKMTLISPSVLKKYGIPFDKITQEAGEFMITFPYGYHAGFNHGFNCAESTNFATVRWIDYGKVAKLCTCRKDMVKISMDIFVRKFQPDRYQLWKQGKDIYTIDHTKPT
Experiment: Histone lysine demethylase AlphaLISA assay, KDM4C
Type: biochemical
Conditions: AlphaLISA, in vitro; read-out: HDME Inhibition KDM4C
Experimental: The compounds of the application, or a pharmaceutically acceptable salt, or solvate, or prodrug thereof, are tested in an in vitro AlphaLISA assay. […] After an additional period of incubation, the plates are read. The ability of compounds of the application to inhibit the histone lysine demethylase activity in vitro of different enzymes was determined. […]

Reference set, count: 4
Suppose we examine the compound `Cc1cc(C(=O)O)cc(CNCCc2ncccc2Br)n1` ; what IC50 value has been reported?
> 10 µM

Entry under review: `C=CCn1ccnc1CNCc1cc(C(=O)O)cc(C)n1` . Reported IC50?
> 10 µM

What does the data say about its IC50? Entry: `O=C(O)c1cc(CO)nc(CNCc2nc(CO)cn2Cc2ccc(F)cc2)c1`
3.47 µM

Any idea what IC50 was measured for `O=C(O)c1cc(CO)nc(CNCc2nncn2CCc2cc(Cl)cc(Cl)c2)c1` ?
> 10 µM

Please find the next compound below.
Give its IC50 value. Item: `Cc1cc(C(=O)O)cc(CNCc2nncn2C/C=C/c2ccccc2)n1`
> 10 µM
